B1: glmS ribozyme (parent)
chain: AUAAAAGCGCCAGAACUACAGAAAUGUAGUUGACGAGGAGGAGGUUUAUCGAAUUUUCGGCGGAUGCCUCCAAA

Variants of: B1
Assay: self-cleavage kobs at 10000 uM GlcN6P; higher = faster cleavage; RNA array
Conditions: with glucosamine-6-phosphate
This sample holds only a part of the variants without activity.
Recorded Metric: self-cleavage kobs at 10000 uM GlcN6P

{"Construct Sequence": "AUAAAAGCCCCAGAACUACAGAAAUGUAGUUGACGAGGAGGAGGUUUAUCGAAUUUUCGGCGGAUACCUCCAAA [G9C G66A]", "Recorded Metric": "self-cleavage kobs at 10000 uM GlcN6P", "Meas Value": "< 1e-05 s⁻¹"}
{"Construct Sequence": "AUAAAAGAGCCAGAACUACAGAAAUGUAGUUGACGAGCAGGAGGUUUAUCGAAUUUUCGGCGGAUGCCUCCAAA [C8A G38C]", "Recorded Metric": "self-cleavage kobs at 10000 uM GlcN6P", "Meas Value": "< 1e-05 s⁻¹"}
{"Construct Sequence": "AUAAAAGCGCCAGAACUACAGAAAUGUAGUUGACGAGGAUGAGGUUUAUAGAAUUUUCGGCGGAUUCCUCCAAA [G40U C50A G66U]", "Recorded Metric": "self-cleavage kobs at 10000 uM GlcN6P", "Meas Value": "< 1e-05 s⁻¹"}
{"Construct Sequence": "AUAAAAGCGCCAGAACUACAGAACUGUAGUUGACGAGGAGGAGGUUUCUCGAAUUUUCGGCUUAUGCCUGCAAA [A24C A48C G62U G63U C70G]", "Recorded Metric": "self-cleavage kobs at 10000 uM GlcN6P", "Meas Value": "< 1e-05 s⁻¹"}
{"Construct Sequence": "AUAAAAGCGCCAGAACUACAGAAAUGUACUUGACGAUGAGGAGGUAUAUCGAAUUUUCGGCGGAUGCCUCCAAA [G29C G37U U46A]", "Recorded Metric": "self-cleavage kobs at 10000 uM GlcN6P", "Meas Value": "< 1e-05 s⁻¹"}
{"Construct Sequence": "AUAAAUGCGCCAGAACUACAGAAAUGUAGUUGACUAGGAGGAGGUUUAUCGAAUUUUCGGCGGAUGCCUCCAAA [A6U G35U]", "Recorded Metric": "self-cleavage kobs at 10000 uM GlcN6P", "Meas Value": "< 1e-05 s⁻¹"}
{"Construct Sequence": "AUAAAAGCGCCAGAACUACAGAAAUGUAGUUGACGCGGAGGGGGUUUAUCGAAUUUUCGGCGGAUGCCUCCAAA [A36C A42G]", "Recorded Metric": "self-cleavage kobs at 10000 uM GlcN6P", "Meas Value": "< 1e-05 s⁻¹"}
{"Construct Sequence": "AUAAAAGCGACAGAACUACAGAAAUGUAGUUGAGGAGGAGGGGGUUUAUCGAAUUUUCGGCGGAUGCCUGCAAA [C10A C34G A42G C70G]", "Recorded Metric": "self-cleavage kobs at 10000 uM GlcN6P", "Meas Value": "< 1e-05 s⁻¹"}
{"Construct Sequence": "AUAAAAGCGCCAGGACUACAGAAAUGUAGUUGUCGAGGAGGAGGUUUAUCGAAUUUUCGUCGGAUGCCUCCAAA [A14G A33U G60U]", "Recorded Metric": "self-cleavage kobs at 10000 uM GlcN6P", "Meas Value": "< 1e-05 s⁻¹"}
{"Construct Sequence": "AUAAAAGCGCCAGUACUACAGAAAUGUAGUUGACGAGGAGGAGGUUUAUCGAAUUUUAGGCGGAUGCCUCCAAA [A14U C58A]", "Recorded Metric": "self-cleavage kobs at 10000 uM GlcN6P", "Meas Value": "0.000594 s⁻¹"}
{"Construct Sequence": "AUAAAAGCGCCAGAACUACAGAAAUGUAGUUGACGAGGAGGAGGUUUAUCGAAUUUCCGGCGGAUGCCUUCAAA [U57C C70U]", "Recorded Metric": "self-cleavage kobs at 10000 uM GlcN6P", "Meas Value": "0.000124 s⁻¹"}
{"Construct Sequence": "AUAAAAGCGCCAGCACUACAGAAAUGUAGAUGACGAGGAGGAGGUUUAUCGAAUUUUCGGCGGAUGCCUCCAAA [A14C U30A]", "Recorded Metric": "self-cleavage kobs at 10000 uM GlcN6P", "Meas Value": "0.000813 s⁻¹"}
{"Construct Sequence": "AUAAAAGCGCCAGGACUACAGAAAUGUAGUUGACGAGGAGGAGGUUUAUCGAAUUUUCGGCGGAUGCUUCCAAA [A14G C68U]", "Recorded Metric": "self-cleavage kobs at 10000 uM GlcN6P", "Meas Value": "0.0159 s⁻¹"}
{"Construct Sequence": "AUAAAAGGGCAAGAACUACAGAAAUGUAGUUGACGAGGAGGAGGUUUAUCGAAUUUUCGGCGGAUGCCUCCAAA [C8G C11A]", "Recorded Metric": "self-cleavage kobs at 10000 uM GlcN6P", "Meas Value": "< 1e-05 s⁻¹"}
{"Construct Sequence": "AUAAAAGCGCCAGAACUACAGAAAUGUAGUUGGCGAGGUGCAGGUUUAUCGAAUUUUCGGCGGAUGCCUCCAAA [A33G A39U G41C]", "Recorded Metric": "self-cleavage kobs at 10000 uM GlcN6P", "Meas Value": "< 1e-05 s⁻¹"}
{"Construct Sequence": "AUAAAAGCGCCAGAACUACAGAAAUGUAGUUGACGCGGAAGAGGUUUAUCGAAUUUUCGGCGGAUGCCUCCAAA [A36C G40A]", "Recorded Metric": "self-cleavage kobs at 10000 uM GlcN6P", "Meas Value": "< 1e-05 s⁻¹"}
{"Construct Sequence": "AUAAAAGCGUCAGAAGUACAGAAAUGUAGUUGACGAGGAGGAGGUUUAUCGAAUUUUCGGAGGAUGCCUCUAAA [C10U C16G C61A C71U]", "Recorded Metric": "self-cleavage kobs at 10000 uM GlcN6P", "Meas Value": "< 1e-05 s⁻¹"}
{"Construct Sequence": "AUAAAAGCGCCAGAACUACAGAAAUGUAGUUGACGAGAAGGAGGUUUAUCGAAUUAUCGGCGGAUGCCUCCAAA [G38A U56A]", "Recorded Metric": "self-cleavage kobs at 10000 uM GlcN6P", "Meas Value": "< 1e-05 s⁻¹"}
{"Construct Sequence": "AUAAAAGCGCCAGUACUACAGAAAUGUAGUCGACGAGGAGGAGGUUUAUCGAAUUUUCGGCGGAUGCCUCCAAA [A14U U31C]", "Recorded Metric": "self-cleavage kobs at 10000 uM GlcN6P", "Meas Value": "0.00303 s⁻¹"}
{"Construct Sequence": "AUAAAAGCGCCAGAACUACAGAAAUGUAGUUGACGCGGAGGAUGUUUAUCGAAUUCACGGCGGAUGGCUCCAAA [A36C G43U U56C U57A C67G]", "Recorded Metric": "self-cleavage kobs at 10000 uM GlcN6P", "Meas Value": "< 1e-05 s⁻¹"}
{"Construct Sequence": "AUAAAAGCGCCAGAACUAAAGAAAUGUAGCUGACGAGGAGGAGGUUUAUCGAAUUUUCGGCGGAUGCCUCCAAA [C19A U30C]", "Recorded Metric": "self-cleavage kobs at 10000 uM GlcN6P", "Meas Value": "6.71e-05 s⁻¹"}
{"Construct Sequence": "AUAAAAGAGCCAGAACUACAGAAAUGUAGUUGACGAAGAGGAGGUUUAUCGAAUUUUCGGCGGAUGCCUCCAAA [C8A G37A]", "Recorded Metric": "self-cleavage kobs at 10000 uM GlcN6P", "Meas Value": "< 1e-05 s⁻¹"}
{"Construct Sequence": "AUAAAAGCGCCAGAACUACAGAAAUGUAGUUGACGAGGAGGAUGUUUAACGAAUUUUCGACGGAUGCUUCCAAA [G43U U49A G60A C68U]", "Recorded Metric": "self-cleavage kobs at 10000 uM GlcN6P", "Meas Value": "< 1e-05 s⁻¹"}
{"Construct Sequence": "AUAAAAGCGCCAGAACUACAGAAAUGUAGUUGACGAGGCGGAGGUUUAGCGAAUUUUCGGCGGAUGCCUCCAAA [A39C U49G]", "Recorded Metric": "self-cleavage kobs at 10000 uM GlcN6P", "Meas Value": "6.91e-05 s⁻¹"}
{"Construct Sequence": "AUAAAAGCGCCAGAACUACAGAAAUGUAGUUGACGAGGAGGCGGUUUAUCGAAUUUUCGGCGAAUGCCUCCAAA [A42C G63A]", "Recorded Metric": "self-cleavage kobs at 10000 uM GlcN6P", "Meas Value": "< 1e-05 s⁻¹"}
{"Construct Sequence": "AUAAAAGCGCCAGAACUACAGAAAUGUAGUUGACGAGGAGGAGGUUGAUCGAAUUUUCGGCGGACGCCUCCAAA [U47G U65C]", "Recorded Metric": "self-cleavage kobs at 10000 uM GlcN6P", "Meas Value": "0.000232 s⁻¹"}
{"Construct Sequence": "AUAAACGCGCCAGAACUACAGAAAUGUAGUUGACGAGGAGGAGGUUUAUCGAAUUUUCAGCGGAUGCCUCCAAA [A6C G59A]", "Recorded Metric": "self-cleavage kobs at 10000 uM GlcN6P", "Meas Value": "< 1e-05 s⁻¹"}
{"Construct Sequence": "AUAAAAGCGCCAGUACUACAGAAAUGUAGUUGACGAGGAGGAGGUUUAUCGAAUUUUCGGCGGAUGCCUCUAAA [A14U C71U]", "Recorded Metric": "self-cleavage kobs at 10000 uM GlcN6P", "Meas Value": "0.00786 s⁻¹"}
{"Construct Sequence": "AUAAAAGCGCCAGAACUACAGAAAUGUAGUUGACGAGGAGGAGGGUUAUCGAAUUGUCGGCGGAUGCCUCCAAA [U45G U56G]", "Recorded Metric": "self-cleavage kobs at 10000 uM GlcN6P", "Meas Value": "0.00403 s⁻¹"}
{"Construct Sequence": "AUAAACGCGCCAGAACUACAGAAAUGUAAUUGAUGAGGAGGAUUUUUAUCGAAUUUUCGGCGGAUGCCUCCAAA [A6C G29A C34U G43U G44U]", "Recorded Metric": "self-cleavage kobs at 10000 uM GlcN6P", "Meas Value": "< 1e-05 s⁻¹"}
{"Construct Sequence": "AUAAAAGCGCCUUAACUACAGAAAUGUACUUGACGAGGAGGAGGUUUAUCGAAUUUUCGGCGGAUGCCUCCAAA [A12U G13U G29C]", "Recorded Metric": "self-cleavage kobs at 10000 uM GlcN6P", "Meas Value": "3.79e-05 s⁻¹"}
{"Construct Sequence": "AUAAAUGCGCCAGGACUACAGAAAUGUAGUUGACGAGGAGGAGGUUUAUCGAAUUUUCGGCGGAUGCCUCCAAA [A6U A14G]", "Recorded Metric": "self-cleavage kobs at 10000 uM GlcN6P", "Meas Value": "0.000513 s⁻¹"}

Hello, the source for this data is the supplement of paper PMC7125110, in case you need it.
